Hello, the source for this data is patent US20210230570, in case you need it.

target: Factor X, P00742
Sequence (P00742 whole entry, looked up): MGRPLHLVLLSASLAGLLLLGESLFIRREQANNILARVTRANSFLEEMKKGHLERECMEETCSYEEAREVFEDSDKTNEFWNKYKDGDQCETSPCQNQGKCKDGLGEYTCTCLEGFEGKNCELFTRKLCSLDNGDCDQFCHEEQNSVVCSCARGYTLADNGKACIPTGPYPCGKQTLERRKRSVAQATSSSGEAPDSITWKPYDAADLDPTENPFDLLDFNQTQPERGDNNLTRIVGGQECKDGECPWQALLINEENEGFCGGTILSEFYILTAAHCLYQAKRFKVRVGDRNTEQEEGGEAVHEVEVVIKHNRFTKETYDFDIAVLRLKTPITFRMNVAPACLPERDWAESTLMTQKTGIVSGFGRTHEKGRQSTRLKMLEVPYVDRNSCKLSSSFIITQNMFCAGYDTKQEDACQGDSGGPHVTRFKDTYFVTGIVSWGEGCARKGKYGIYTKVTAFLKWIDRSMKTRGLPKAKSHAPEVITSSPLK
Consider the following proteins; for each one, report its KM (Catalytic activity of FIXa variants).
The answer is to be given in µM; state only the numeric part.

query: // lookup KM (Catalytic activity of FIXa variants) for FIXa-K228N/R338E/R403E (protein) chain 1: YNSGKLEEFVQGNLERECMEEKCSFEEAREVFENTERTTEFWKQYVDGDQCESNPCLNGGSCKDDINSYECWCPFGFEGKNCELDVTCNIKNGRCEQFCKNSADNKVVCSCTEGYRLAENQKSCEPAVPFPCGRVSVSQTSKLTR chain 2: VVGGEDAKPGQFPWQVVLNGKVDAFCGGSIVNEKWIVTAAHCVETGVNITVVAGEHNIEETEHTEQKRNVIRIIPHHNYNAAINKYNHDIALLELDEPLVLNSYVTPICIADKEYTNIFLKFGSGYVSGWGRVFHKGRSALVLQYLRVPLVDRATCLESTKFTIYNNMFCAGFHEGGRDSCQGDSGGPHVTEVEGTSFLTGIISWGEECAMKGKYGIYTKVSEYVNWIKEKTKLT
result: 0.0592

query: Also need FIXa-D203N/F205T/R338E/R403E (protein) chain 1: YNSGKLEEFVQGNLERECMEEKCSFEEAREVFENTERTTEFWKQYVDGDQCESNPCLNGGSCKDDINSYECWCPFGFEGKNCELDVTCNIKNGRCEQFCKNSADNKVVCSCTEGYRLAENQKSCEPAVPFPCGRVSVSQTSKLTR chain 2: VVGGEDAKPGQFPWQVVLNGKVNATCGGSIVNEKWIVTAAHCVETGVKITVVAGEHNIEETEHTEQKRNVIRIIPHHNYNAAINKYNHDIALLELDEPLVLNSYVTPICIADKEYTNIFLKFGSGYVSGWGRVFHKGRSALVLQYLRVPLVDRATCLESTKFTIYNNMFCAGFHEGGRDSCQGDSGGPHVTEVEGTSFLTGIISWGEECAMKGKYGIYTKVSEYVNWIKEKTKLT , thanks.
result: 0.0511

query: Also need FIXa-A103N/N105S/R318Y/R338E/R403E/E410N (protein) chain 1: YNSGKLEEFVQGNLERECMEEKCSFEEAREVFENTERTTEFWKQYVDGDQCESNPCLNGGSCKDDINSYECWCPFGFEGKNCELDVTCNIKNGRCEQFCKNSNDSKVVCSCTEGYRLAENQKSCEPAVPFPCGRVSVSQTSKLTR chain 2: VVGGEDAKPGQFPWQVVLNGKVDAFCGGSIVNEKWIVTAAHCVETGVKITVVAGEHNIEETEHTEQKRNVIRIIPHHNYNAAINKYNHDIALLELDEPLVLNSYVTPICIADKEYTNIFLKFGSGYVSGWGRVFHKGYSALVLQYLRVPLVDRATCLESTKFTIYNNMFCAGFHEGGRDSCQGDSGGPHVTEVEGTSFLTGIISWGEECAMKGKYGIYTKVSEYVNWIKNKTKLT , thanks.
result: 0.0447

query: Also need FIXa-D203N/F205T/R318Y (protein) chain 1: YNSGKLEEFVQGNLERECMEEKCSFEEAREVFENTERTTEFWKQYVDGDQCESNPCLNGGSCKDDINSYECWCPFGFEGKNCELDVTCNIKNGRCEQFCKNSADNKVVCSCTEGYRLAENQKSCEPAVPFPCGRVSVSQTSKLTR chain 2: VVGGEDAKPGQFPWQVVLNGKVNATCGGSIVNEKWIVTAAHCVETGVKITVVAGEHNIEETEHTEQKRNVIRIIPHHNYNAAINKYNHDIALLELDEPLVLNSYVTPICIADKEYTNIFLKFGSGYVSGWGRVFHKGYSALVLQYLRVPLVDRATCLRSTKFTIYNNMFCAGFHEGGRDSCQGDSGGPHVTEVEGTSFLTGIISWGEECAMKGKYGIYTKVSRYVNWIKEKTKLT , thanks.
result: 0.0475
